Assign EC50 to each entry below.
# target-system: T1, Recombinant CD127 Fc Chimera (10975-H03H, Sino Biological) (human, UniProt P16871 21-239)
# T1 construct: Bought protein; also called hCD127-Ig; human CD127Fc; not shown: constant fragment of an immunoglobulin
# T1 chain: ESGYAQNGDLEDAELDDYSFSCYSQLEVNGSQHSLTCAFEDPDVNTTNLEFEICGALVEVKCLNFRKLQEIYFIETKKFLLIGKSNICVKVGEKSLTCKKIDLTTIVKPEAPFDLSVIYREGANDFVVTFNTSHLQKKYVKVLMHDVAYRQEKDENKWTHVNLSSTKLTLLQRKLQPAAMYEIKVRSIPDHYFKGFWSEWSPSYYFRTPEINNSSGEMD
# assay-notes: ELISA, human CD127Fc coated, revealed with anti-human kappa antibody; printed as ED 50
Numbers only, in ng/mL.

Check out these entries, answers already filled in.
stdin: Item under review: N13B2 wt (antibody, V domains shown, also called Rat N13B2 wt) VH: AVQLVESGGGLVQPGGSLKLSCAVSGFTLSDYYMAWVRQAPKKGLEWVATISASGLRTYYPDSVKGRFTISRDDAKRSLFLQMTSLKSEDTATYYCARPMSAHYGFNYFDYWGQGVMVTVSS VL: DIQMTQSPASLSASLGETVTIECRTSEDIYNGLAWYQQKPGKSPQLLVYSANSLHIGVPSRFSGSGSGTQYSLKINSLQFEDVASYFCQQYYDYPLAFGSGTKLEIKR . Reported EC50?
stdout: 3

stdin: What do you get for N13B2-h3 (humanized N13B2) (antibody, IgG4, V domains shown, Variable regions only) VH: QVQLVESGGGLVKPGGSLRLSCAVSGFTLSDYYMAWIRQAPGKGLEWVSTISASGLRTYYPDSVKGRFTISRDNAKNSLYLQMNSLRAEDTAVYYCARPLSAHYGFNYFDYWGQGTLVTVSS VL: EIVMTQSPATLSVSPGERATLSCRTSEDIYQGLAWYQQKPGQAPRLLIYSANTLHIGIPARFSGSGSGTEFTLTISSLQSEDFAVYYCQQYYDYPLAFGGGTKVEIK ?
stdout: 0.6

Next:
stdin: Item under review: N13B2-h1 (humanized N13B2) (antibody, V domains shown) VH: QVQLVESGGGLVKPGGSLRLSCAVSGFTLSDYYMAWVRQAPGKGLEWVATISASGLRTYYPDSVKGRFTISRDDAKNSLYLQMNSLRAEDTAVYYCARPMSAHYGFNYFDYWGQGTLVTVSS VL: EIVMTQSPATLSVSPGERATLSCRTSEDIYNGLAWYQQKPGQAPRLLVYSANSLHIGIPARFSGSGSGTEYTLTISSLQSEDFAVYFCQQYYDYPLAFGGGTKVEIK . Reported EC50?
stdout: 2.4

Recorded values, source patent US20170129959A1.
